# targetOfAssay: T1, Ube2N^R14E (UniProt P61088 1-152, R14E)
# T1 construct: Ube2N, ubiquitin-conjugating enzyme E2 N, with R14E; source: E. coli Rossetta2 (DE3), purified (ion exchange, SEC)
# T1 sequence (looked up): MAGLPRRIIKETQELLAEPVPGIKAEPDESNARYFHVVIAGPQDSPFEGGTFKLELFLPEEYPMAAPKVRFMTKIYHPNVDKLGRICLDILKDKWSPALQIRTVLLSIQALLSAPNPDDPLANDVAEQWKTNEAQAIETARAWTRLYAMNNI
# assayDetails: ITC; ZNRF1 construct (10–30 µM) in the cell, E2 in the syringe; 25°C; 20 mM sodium phosphate pH 8.0, 150 mM NaCl; single site model
# measurementParameters: both partners purified
measureName: Kd

1. ZNRF1^CTD (C-terminal domain of ZNRF1, residues 139–227) (domain or fragment, UniProt Q8ND25 139-227, looked up, ZNRF1, RING E3 ubiquitin ligase, residues 139-227 of the full-length protein (ZnF and RING domains); also called ZNRF1 C-terminal domain; ZRNF1^CTD; source: E. coli Rossetta2 (DE3), purified (HisTrap, SEC)) SHSGFKCPICSKSVASDEMEMHFIMCLSKPRLSYNDDVLTKDAGECVICLEELLQGDTIARLPCLCIYHKSCIDSWFEVNRSCPEHPAD | 1080 nM
